# Lookup of reported pEC50 keyed by entry
# targetOrSystem: TRPML1 (Homo sapiens)
# Sequence (Q9GZU1 whole entry L15A/L16A/L577A/L578A, form open): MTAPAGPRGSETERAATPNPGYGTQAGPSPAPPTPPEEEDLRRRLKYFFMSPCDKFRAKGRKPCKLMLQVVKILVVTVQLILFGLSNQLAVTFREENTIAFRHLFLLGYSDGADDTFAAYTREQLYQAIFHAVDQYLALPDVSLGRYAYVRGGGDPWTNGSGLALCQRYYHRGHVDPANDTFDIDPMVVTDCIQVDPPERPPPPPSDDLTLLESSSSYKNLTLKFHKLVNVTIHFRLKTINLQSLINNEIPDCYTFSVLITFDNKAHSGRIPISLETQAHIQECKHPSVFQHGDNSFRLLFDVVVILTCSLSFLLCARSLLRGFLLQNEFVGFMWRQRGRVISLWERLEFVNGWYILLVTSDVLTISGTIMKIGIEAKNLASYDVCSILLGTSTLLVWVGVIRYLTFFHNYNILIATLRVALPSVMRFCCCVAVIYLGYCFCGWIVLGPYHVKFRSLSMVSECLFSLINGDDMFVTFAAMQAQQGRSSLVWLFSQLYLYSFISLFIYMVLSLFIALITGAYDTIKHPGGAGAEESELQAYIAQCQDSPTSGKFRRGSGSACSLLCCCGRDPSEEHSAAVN
# procedureDetails: Fluorescent TRPML1 assay (Fluo4-AM calcium fluorescence in doxycycline-induced HEK-293 Trex cells)
# Assay type: cell-based
# testParameters: fluorescent calcium assay
pEC50: −log10 of the molar value.

Previously resolved entries follow.
{"compound": "C[C@H]1CN(C(=O)OC(C)(C)C)CCN1c1ncnc2c1c(C1CC1)cn2-c1cc(C#N)ncn1 [Compound 431]", "pEC50": "6.30 to 7.00"}
{"compound": "C[C@H]1CN(C(=O)OC(C)(C)C)CCN1c1ncnc2c1c(C1CC1)cn2-c1ccc(F)cc1 [Compound 128]", "pEC50": "> 7.00"}
{"compound": "C[C@H]1CN(C(=O)OC(C)(C)C)CCN1c1ncnc2c1c(-c1ccncn1)cn2-c1cccc(Cl)c1 [Compound 115]", "pEC50": "6.30 to 7.00"}
{"compound": "COc1cc(F)cc(-n2cc(C3CC3)c3c(N4CCN(C(=O)OC(C)(C)C)C[C@@H]4C)ncnc32)c1 [Compound 288]", "pEC50": "6.30 to 7.00"}
{"compound": "C[C@H]1CN(C(=O)OC(C)(C)C(F)(F)F)CCN1c1ncnc2c1c(C1CC1)cn2C1CCCCC1 [Compound 325]", "pEC50": "6.30 to 7.00"}
{"compound": "C[C@H]1CN(C(=O)OC(C)(C)C(F)(F)F)CCN1c1ncnc2c1c(C1CC1)cn2-c1ccc(Cl)cc1 [Compound 148]", "pEC50": "> 7.00"}
{"compound": "C[C@H]1CN(C(=O)OC(C)(C)C(F)(F)F)CCN1c1ncnc2c1c(-c1cnn(C)c1)cn2-c1cc(C#N)ccn1 [Compound 330]", "pEC50": "> 7.00"}
{"compound": "C[C@H]1CN(C(=O)OC(C)(C)C)CCN1c1ncnc2c1c(C1CC1)cn2-c1ccc(F)c(OC(F)(F)F)c1 [Compound 387]", "pEC50": "5.70 to 6.30"}
{"compound": "C[C@@H]1CN(c2ncnc3c2c(C(F)(F)F)cn3-c2cccc(Cl)c2)[C@@H](C)CN1C(=O)OC(C)(C)C [Compound 491]", "pEC50": "> 7.00"}

Quote pEC50 reported for CC(C)(C)OC(=O)N1CCN(c2ncnc3c2c(C2CC2)cn3-c2cc(F)cc(F)c2)CC1 [Compound 146] please.
6.30 to 7.00

====

# targetOrSystem: TRPML3 (Homo sapiens)
# Construct: expressed in transfected cells
# Sequence (Q8TDD5 whole entry): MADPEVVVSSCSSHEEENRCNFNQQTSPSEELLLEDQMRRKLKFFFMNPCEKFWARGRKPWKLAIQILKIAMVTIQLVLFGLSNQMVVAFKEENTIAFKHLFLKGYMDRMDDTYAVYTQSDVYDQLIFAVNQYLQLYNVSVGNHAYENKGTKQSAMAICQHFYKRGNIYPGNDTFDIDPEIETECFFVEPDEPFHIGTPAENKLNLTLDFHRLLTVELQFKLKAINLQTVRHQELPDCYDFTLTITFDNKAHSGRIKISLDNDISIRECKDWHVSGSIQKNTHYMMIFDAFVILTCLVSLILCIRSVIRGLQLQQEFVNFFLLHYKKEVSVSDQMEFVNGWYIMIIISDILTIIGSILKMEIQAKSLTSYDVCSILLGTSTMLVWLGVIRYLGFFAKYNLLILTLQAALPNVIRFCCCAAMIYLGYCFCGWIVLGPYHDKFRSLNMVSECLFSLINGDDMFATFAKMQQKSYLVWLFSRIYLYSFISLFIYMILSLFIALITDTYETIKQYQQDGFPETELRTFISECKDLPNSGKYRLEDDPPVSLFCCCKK
# procedureDetails: Fluorescent TRPML3 assay (performed as for TRPML1, substituting the TRPML3 subtype)
# Type: cell-based
# testParameters: fluorescent calcium assay
We begin with a simple list: items and their reported EC50.

Worked set:
{"compound": "C[C@H]1CN(C(=O)OC(C)(C)C)CCN1c1ncnc2c1c(C1CC1)cn2-c1cc(F)ccc1F [Compound 218]", "targetOrSystem": "TRPML3 (Homo sapiens)", "EC50": "< 100 nM"}
{"compound": "C[C@H]1CN(C(=O)OC(C)(C)C)CCN1c1ncnc2c1c(-c1cncnc1)cn2-c1cccc(C#N)c1 [Compound 328]", "targetOrSystem": "TRPML3 (Homo sapiens)", "EC50": "100 to 500 nM"}
{"compound": "Cc1ccc(Cl)cc1-n1cc(N2CCCC2)c2c(N3CCN(C(=O)OC(C)(C)C)C[C@@H]3C)ncnc21 [Compound 306]", "targetOrSystem": "TRPML3 (Homo sapiens)", "EC50": "100 to 500 nM"}
{"compound": "C[C@H]1CN(C(=O)OC(C)(C)C(F)(F)F)CCN1c1ncnc2c1c(-c1cnn(C)c1)cn2-c1cccc(C#N)c1 [Compound 329]", "targetOrSystem": "TRPML3 (Homo sapiens)", "EC50": "100 to 500 nM"}
{"compound": "C[C@H]1CN(C(=O)OC(C)(C)C)CCN1c1ncnc2c1c(C1CC1)cn2-c1cncc(C#N)c1 [Compound 259]", "targetOrSystem": "TRPML3 (Homo sapiens)", "EC50": "100 to 500 nM"}
{"compound": "CC1CN(C(=O)OC(C)(C)C)CCN1c1ncnc2c1c(C1CC1)cn2-c1cncc(Cl)c1 (stereo not shown) [Compound 164]", "targetOrSystem": "TRPML3 (Homo sapiens)", "EC50": "< 100 nM"}
{"compound": "C[C@@H]1CN(c2ncnc3c2c(N2CCCC2)cn3-c2cc(C#N)ccn2)CCN1C(=O)OC(C)(C)C [Compound 416]", "targetOrSystem": "TRPML3 (Homo sapiens)", "EC50": "< 100 nM"}
{"compound": "C[C@@H]1CN(c2ncnc3c2c(C2CC2)cn3-c2cc(C#N)ccn2)CCN1C(=O)OC(C)(C)C [Compound 384]", "targetOrSystem": "TRPML3 (Homo sapiens)", "EC50": "< 100 nM"}
{"compound": "Cc1c(Cl)cccc1-n1cc(-c2cnccn2)c2c(N3CCN(C(=O)OC(C)(C)C)CC3C)ncnc21 (stereo not shown) [Compound 162]", "targetOrSystem": "TRPML3 (Homo sapiens)", "EC50": "100 to 500 nM"}
{"compound": "C[C@@H]1CN(c2ncnc3c2c(N(C)C)cn3-c2cc(C#N)ccn2)CCN1C(=O)OC(C)(C)C [Compound 427]", "targetOrSystem": "TRPML3 (Homo sapiens)", "EC50": "< 100 nM"}

Indicate the recorded EC50 value for this compound: C[C@H]1COCCN1c1cn(-c2cccc(C#N)c2)c2ncnc(N3CCN(C(=O)OC(C)(C)C)C[C@@H]3C)c12 [Compound 379]
500 to 2000 nM

Look up and state reported EC50 for C[C@@H]1CN(c2ncnc3c2c(C2CC2)cn3-c2ccc(Cl)c(F)c2)CCN1C(=O)OC(C)(C)C [Compound 110]
< 100 nM
